# tested target: the molecule itself
# run description: SEC
property name: stoichiometry N

INPUT: Which measured stoichiometry N value corresponds to VapBC1 heterodimer (complex, VapB1 antitoxin of Mycobacterium tuberculosis, gene Rv0064a; as m1; VapC1 toxin of Mycobacterium tuberculosis, gene Rv0065; as m2; also called Rv0064a/Rv0065) chain 1: MATIQVRDLPEDVAETYRRRATAAGQSLQTYMRTKLIEGVRGRDKAEAIEILEQALASTASPGISRETIEASRRELRGG chain 2: MDECVVDAAAVVDALAGKGASAIVLRGLLKESISNAPHLLDAEVGHALRRAVLSDEISEEQARAALDALPYLIDNRYPHSPRLIEYTWQLRHNVTFYDALYVALATALDVPLLTGDSRLAAAPGLPCEIKLVR ?
OUTPUT: 5.6 VapBC heterodimers per complex

INPUT: Please do the same for VapBC19 heterodimer (complex, VapB19 antitoxin of Mycobacterium tuberculosis, gene Rv2547; as m3; VapC19 toxin of Mycobacterium tuberculosis, gene Rv2548; as m4; also called Rv2547/Rv2548) chain 1: MRTQVTLGKEELELLDRAAKASGASRSELIRRAIHRAYGTGSKQERLAALDHSRGSWRGRDFTGTEYVDAIRGDLNERLARLGLA chain 2: MKLIDTTIAVDHLRGEPAAAVLLAELINNGEEIAASELVRFELLAGVRESELAALEAFFSAVVWTLVTEDIARIGGRLARRYRSSHRGIDDVDYLIAATAIVVDADLLTTNVRHFPMFPDLQPPY as well.
OUTPUT: 3.61 VapBC heterodimers per complex

INPUT: Consider next the protein VapBC39 heterodimer (complex, VapB39 antitoxin of Mycobacterium tuberculosis, gene Rv2530a; as m9; VapC39 toxin of Mycobacterium tuberculosis, gene Rv2530c; as m10; also called Rv2530a/Rv2530c) chain 1: MRTTLQIDDDVLEDARSIARSEGKSVGAVISELARRSLRPVGIVEVDGFPVFDVPPDAPTVTSEDVVRALEDDV chain 2: MTALLDVNVLIALGWPNHVHHAAAQRWFTQFSSNGWATTPITEAGYVRISSNRSVMQVSTTPAIAIAQLAAMTSLAGHTFWPDDVPLIVGSAGDRDAVSNHRRVTDCHLIALAARYGGRLVTFDAALADSASAGLVEVL in the same way.
OUTPUT: 4.9 VapBC heterodimers per complex

INPUT: Now the same for VapBC29 heterodimer (complex, VapB29 antitoxin of Mycobacterium tuberculosis, gene Rv0616a; as m7; VapC29 toxin of Mycobacterium tuberculosis, gene Rv0617; as m8; also called Rv0616a/Rv0617) chain 1: MRTTIDLPQDLHKQALAIARDTHRTLSETVADLMRRGLAANRPTALSSDPRTGLPLVSVGTVVTSEDVRSLEDEQ chain 2: MTVLLDANVLIALVVAEHVHHDAAADWLMASDTGFATCPMTQGSLVRFLVRSGQSAAAARDVVSAVQCTSRHEFWPDALSFAGVEVAGVVGHRQVTDAYLAQLARSHDGQLATLDSGLAHLHGDVAVLIPTTT
OUTPUT: 5 VapBC heterodimers per complex

This collection of values is drawn from paper PMC6118392.
